Entry source: patent US6444616B1

melting point strictly under 200 °C means Met; at 200 °C or over means Not met.

Example entries and their recorded answers appear below.
Nn1c(C(F)(F)F)cc(=O)n(-c2cc(F)c(C(F)(F)F)cc2F)c1=O :: Met
CS(=O)(=O)Nc1cc(-n2c(=O)cc(C(F)(F)F)[nH]c2=O)c(F)cc1C(F)(F)F :: Not met
Cn1c(C(F)(F)F)cc(=O)n(-c2cc(NS(C)(=O)=O)c(C(F)(F)F)cc2F)c1=O :: Met
O=c1cc(C(F)(F)F)[nH]c(=O)n1-c1cc(F)c(C(F)(F)F)cc1F :: Not met

Item "Cn1c(C(F)(F)F)cc(=O)n(-c2cc(F)c(C(F)(F)F)cc2F)c1=O" : melting point beneath 200 °C, strictly?
Met
